# assayed system: human ARG2 (arginase 2) (Homo sapiens)
# Sequence (P78540 23-354): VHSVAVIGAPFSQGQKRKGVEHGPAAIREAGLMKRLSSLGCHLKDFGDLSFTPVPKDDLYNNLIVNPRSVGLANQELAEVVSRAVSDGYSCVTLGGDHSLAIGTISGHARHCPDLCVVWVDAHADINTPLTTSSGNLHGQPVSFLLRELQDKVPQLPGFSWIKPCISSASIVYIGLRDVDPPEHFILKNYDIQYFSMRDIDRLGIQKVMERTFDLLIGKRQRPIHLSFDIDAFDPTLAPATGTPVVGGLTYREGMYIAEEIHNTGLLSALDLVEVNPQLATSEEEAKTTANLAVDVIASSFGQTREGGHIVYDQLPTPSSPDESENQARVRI
reported metric: IC50 (nM)
One number for each entry, in nM.

Qu. Please look up its IC50: N[C@](CCCCB(O)O)(CCN1CCCCC1)C(=O)O
Ans. 2700
